# Assay comment: Cytotoxicity against human HL7702 cells incubated for 96 hrs by MTT assay
# Type: toxicity, cell-based, L02
Quantity name: IC50 at 96 h (µM)

Cpd smiles	Measured number
C/C(O)=C(\C#N)C(=O)Nc1cc(O[C@@H](C)C(F)(F)F)c(C(=O)c2ccccc2Cl)cc1F	1.1
C/C(O)=C(\C#N)C(=O)Nc1cc(O[C@@H](C)C(F)(F)F)c(C(=O)c2ccccc2F)cc1F	2.1

* * *

Item-by-item account of inhibition
# Tgt: Dihydroorotate dehydrogenase (quinone), mitochondrial (Homo sapiens)
# Sequence (Q02127 whole entry): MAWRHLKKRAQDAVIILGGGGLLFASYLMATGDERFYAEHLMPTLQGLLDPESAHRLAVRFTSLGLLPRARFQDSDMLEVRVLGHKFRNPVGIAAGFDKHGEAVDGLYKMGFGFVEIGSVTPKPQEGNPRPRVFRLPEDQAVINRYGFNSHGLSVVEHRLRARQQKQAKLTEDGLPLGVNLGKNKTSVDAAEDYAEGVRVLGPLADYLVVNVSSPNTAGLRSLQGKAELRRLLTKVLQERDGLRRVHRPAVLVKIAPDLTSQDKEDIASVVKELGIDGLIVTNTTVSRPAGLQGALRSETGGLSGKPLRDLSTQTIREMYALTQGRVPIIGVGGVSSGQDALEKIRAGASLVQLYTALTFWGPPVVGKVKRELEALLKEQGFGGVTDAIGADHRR
# Assay comment: Inhibition of human DHODH at 100 nM for 30 mins relative to control

Cpd smiles	inhibition (%)
O=C(c1ccccc1)c1ccc(Nc2ncccc2C(=O)O)c(F)c1	57.7
C/C(O)=C(\C#N)C(=O)Nc1cc(O[C@@H](C)C(F)(F)F)c(C(=O)c2ccc(Cl)cc2)cc1F	56.8
C/C(O)=C(\C#N)C(=O)Nc1cc(O[C@@H](C)C(F)(F)F)c(C(=O)c2cccc(Cl)c2)cc1F	61.8
C/C(O)=C(\C#N)C(=O)Nc1ccc(C(=O)c2ccccc2)cc1	30.8
C/C(O)=C(\C#N)C(=O)Nc1cc(O[C@@H](C)C(F)(F)F)c(C(=O)c2ccccc2F)cc1F	79.1
COc1cc(NC(=O)/C(C#N)=C(/C)O)c(F)cc1C(=O)c1ccccc1	48.5
COc1cccc(C(=O)c2cc(F)c(NC(=O)/C(C#N)=C(/C)O)cc2O[C@@H](C)C(F)(F)F)c1	57.2
CCOc1cc(NC(=O)/C(C#N)=C(/C)O)c(F)cc1C(=O)c1ccccc1	49.8
C/C(O)=C(\C#N)C(=O)Nc1cc(O[C@@H](C)C(F)(F)F)c(C(=O)c2ccc(F)cc2)cc1F	56.4
C/C(O)=C(\C#N)C(=O)Nc1cc(O[C@@H](C)C(F)(F)F)c(C#N)cc1F	31.8

Source: ChEMBL document CHEMBL5352423
